- Assay procedure: qHTS for Inhibitors of the Aldehyde Dehydrogenase Family (ALDH1A2, ALDH1A3, ALDH2, ALDH3A1) (AID 2061307); further: nearly all actives have a fitted effect of over 50% in size
- Measurement context: ALDH inhibition qHTS; series mostly up to 50.3 µM
Inconclusive results are not listed. The source made the active and inactive calls. The call rests on the fitted dose curve; in most records, active means well fitted inhibition curve with a large enough effect; inconclusive means small, poorly fitted or top-dose-only effect; inactive means no such curve, though single readings can be large or run the other way.
Output constraint: value belongs to true (1) for active, false (0) for inactive

Compound: O=C1c2ccccc2-c2nnc(-c3ccccc3Cl)cc21
Class assignment: false (0)

Ask | Hey, what did the test say about Cc1ccc(S(=O)(=O)Nc2cnccc2C(=O)Nc2nc(-c3ccc4c(c3)CCCC4)cs2)cc1 ?
Reply | true (1)

Ask | Now try O=C(Nc1cccnc1Cl)c1cc(-c2cccc(Cl)c2)on1 .
Reply | false (0)

Ask | Now try COc1ccc(-n2cc(-c3ccc4c(c3)OCO4)n(CC(=O)Nc3cccc(C)c3)c2=O)cc1 .
Reply | false (0)

Ask | Now try O=S(=O)(Nc1ccccc1F)c1cccc(NC(=S)NCCN2CCOCC2)c1 .
Reply | false (0)

Ask | Now try COc1cccc(C2c3c(ncn(-c4ccccc4)c3=N)Oc3ccc4ccccc4c32)c1 (stereo not given) .
Reply | false (0)

Ask | Now try O=C(Nc1ccc(-c2nnc3n2CCCC3)cc1)Nc1ccccc1Br .
Reply | true (1)

Ask | Now try CC(=O)Nc1ccc(NC(=O)c2cc(=O)c3ccccc3o2)cc1 .
Reply | false (0)

Ask | Now try COc1ccc(-n2ccc(CNc3cccc(F)c3C#N)n2)cc1 .
Reply | false (0)

Ask | Now try COC(=O)c1ccc(CN2CCC(N(CCc3ccccc3)Cc3ccccc3)CC2)cc1 .
Reply | false (0)

Measured values drawn from PubChem BioAssay (NCATS) for this set.
